Measured viability, T/C by item
- System: 616215-338-R-J1-PDC complex spheroid viability
- test: Anticancer human tumor 616215-338-R-J1-PDC patient-derived colon adenocarcinoma cell line growth inhibition [RAS]
- conditionDetails: second compound 0.316 µM; first compound 3.16 µM; active compounds read low
Reply with just the number (in %).

{"columns": ["molecule", "viability, T/C [%]"],
 "data": [
  ["CC(=O)OC12COC1CC(O)C1(C)C(=O)C(O)C3=C(C)C(OC(=O)C(O)C(NC(=O)OC(C)(C)C)c4ccccc4)CC(O)(C(OC(=O)c4ccccc4)C21)C3(C)C (stereo not given) + C#Cc1c(F)ccc2cc(O)cc(-c3ncc4c(N5CC6CCC(C5)N6)nc(OCC56CCCN5CC(F)C6)nc4c3F)c12", 22.4],
  ["Cc1nc(N2CCC3(CC2)COC(C)C3N)c(CO)nc1Sc1ccnc(N)c1Cl (stereo not given) + C#Cc1c(F)ccc2cc(O)cc(-c3ncc4c(N5CC6CCC(C5)N6)nc(OCC56CCCN5CC(F)C6)nc4c3F)c12", 57.7],
  ["CC1(O)CCCC1n1c(=O)c(C(F)F)cc2cnc(NC3CCN(S(C)(=O)=O)CC3)nc21 (stereo not given) + C#Cc1c(F)ccc2cc(O)cc(-c3ncc4c(N5CC6CCC(C5)N6)nc(OCC56CCCN5CC(F)C6)nc4c3F)c12", 37.9],
  ["NC1c2ccccc2OC12CCN(c1cnc3c(N4CCCc5ncccc54)n[nH]c3n1)CC2 (stereo not given) + C=CC(=O)N1CCN(c2nc(OCC3CCCN3C)nc3c(F)c(-c4nc(N)cc(C)c4C(F)(F)F)c(Cl)cc23)C(C)C1", 70.9]
]}

stdin: Dear colleague, please send me the reported viability, T/C for CC1(O)CCCC1n1c(=O)c(C(F)F)cc2cnc(NC3CCN(S(C)(=O)=O)CC3)nc21 (stereo not given) + C=CC(=O)N1CCN(c2nc(OCC3CCCN3C)nc3c(F)c(-c4nc(N)cc(C)c4C(F)(F)F)c(Cl)cc23)C(C)C1 when you can.
stdout: 44.5

====

Measured viability, T/C accompanies every entry in the list below.
- Tested on: 616215-338-R-J1-PDC complex spheroid viability
- test: Anticancer human tumor 616215-338-R-J1-PDC cell line growth inhibition [RAS];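 also: spheroids exposed to agents for seven days before viability readout; 100% = DMSO vehicle control viability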
- conditionDetails: second compound 0.000949 µM; first compound 0.00316 µM; active compounds read low
- Text: RAS pathway inhibitors in Combinations in Complex Spheroids A high-throughput screen of multi-cell type tumor spheroids was designed to identify active combinations of RAS pathway inhibitors and targeted small molecules. Complex spheroids include a stromal component modeled by human endothelial cells (HUVEC) and fibroblasts modeled by human mesenchymal stem cells (MSCs). […] Compounds. […] If the clinical Cmax for an agent had not been determined, the highest concentration tested was 10 microM. […]

{"columns": ["compound", "dataValue"],
 "data": [
  ["CCN1CCN(Cc2ccc(Nc3ncc(F)c(-c4cc(F)c5nc(C)n(C(C)C)c5c4)n3)nc2)CC1 + CCn1c(-c2cccnc2C(C)OC)c2c3cc(ccc31)N1CCOC(CC(NC(=O)C(C(C)C)N(C)C(=O)C3(F)CCN(C(=O)C#CC(C)(C)N(C)C)CC3)C(=O)N3CCCC(N3)C(=O)OCC(C)(C)C2)C1", "104%"],
  ["O=C(c1ccc(F)c(F)c1Nc1ccc(I)cc1F)N1CC(O)([C@@H]2CCCCN2)C1 + CCn1c(-c2cccnc2C(C)OC)c2c3cc(ccc31)N1CCOC(CC(NC(=O)C(C(C)C)N(C)C(=O)C3(F)CCN(C(=O)C#CC(C)(C)N(C)C)CC3)C(=O)N3CCCC(N3)C(=O)OCC(C)(C)C2)C1", "108%"],
  ["C=CC(=O)Nc1cc(Nc2nccc(-c3cn(C)c4ccccc34)n2)c(OC)cc1N(C)CCN(C)C + CCn1c(-c2cc(N3CCN(C)CC3)cnc2C(C)OC)c2c3cc(ccc31)-c1csc(n1)CC(NC(=O)C1CC1C)C(=O)N1CCCC(N1)C(=O)OCC(C)(C)C2", "106%"]
]}

Please find the next compound below.
stdin: Output viability, T/C of Nc1ccn(C2OC(CO)C(O)C2(F)F)c(=O)n1 (centres undefined) + CCn1c(-c2cc(N3CCN(C)CC3)cnc2C(C)OC)c2c3cc(ccc31)-c1csc(n1)CC(NC(=O)C1CC1C)C(=O)N1CCCC(N1)C(=O)OCC(C)(C)C2
stdout: 96.2%

====

- Test system: 616215-338-R-J1-PDC complex spheroid viability
- test: Anticancer human tumor 616215-338-R-J1-PDC cell line growth inhibition [RAS];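 also: spheroids exposed to agents for seven days before viability readout; 100% = DMSO vehicle control viability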
- conditionDetails: second compound 0.0316 µM; first compound 0.316 µM; active compounds read low
Below is a list of entries, each paired with its recorded viability, T/C value.
Could you give me the number in %? Just the number is fine.

stdin: Name the value of viability, T/C reported for Nc1ccn(C2OC(CO)C(O)C2(F)F)c(=O)n1 (stereo not drawn) + C=CC(=O)N1CCN(c2nc(OCC3CCCN3C)nc3c(F)c(-c4nc(N)cc(C)c4C(F)(F)F)c(Cl)cc23)C(C)C1 when tested on 616215-338-R-J1-PDC complex spheroid viability.
stdout: 9.07

stdin: Please indicate recorded viability, T/C of CCC(CC)c1cc(NC2CCC(N)C2)n2nccc2n1 (stereo not drawn) + C=CC(=O)N1CCN(c2nc(OCC3CCCN3C)nc3c(F)c(-c4nc(N)cc(C)c4C(F)(F)F)c(Cl)cc23)C(C)C1 measured with 616215-338-R-J1-PDC complex spheroid viability.
stdout: 90.2

stdin: Look up and report measured viability, T/C (616215-338-R-J1-PDC complex spheroid viability) for the following compound: Cc1nc(N2CCC3(CC2)COC(C)C3N)c(CO)nc1Sc1ccnc(N)c1Cl (stereo not drawn) + C#Cc1c(F)ccc2cc(O)cc(-c3ncc4c(N5CC6CCC(C5)N6)nc(OCC56CCCN5CC(F)C6)nc4c3F)c12
stdout: 116

====

Below is a list of entries, each paired with its recorded viability, T/C value.
- System: 616215-338-R-J1-PDC complex spheroid viability
- test: Anticancer human tumor 616215-338-R-J1-PDC cell line growth inhibition [RAS];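 also: spheroids exposed to agents for seven days before viability readout; 100% = DMSO vehicle control viability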
- conditionDetails: second compound 0.316 µM; first compound 1 µM; active compounds read low
# unit: % | format: bare number

Consider the worked cases shown below.
{"columns": ["compound", "outputUnit", "viability, T/C"],
 "data": [
  ["CC(C)NCC(C(=O)N1CCN(c2ncnc3c2C(C)CC3O)CC1)c1ccc(Cl)cc1 (stereo unspecified) + C=CC(=O)N1CCN(c2nc(OCC3CCCN3C)nc3c(F)c(-c4nc(N)cc(C)c4C(F)(F)F)c(Cl)cc23)C(C)C1", "%", 108],
  ["C[C@@H](NC(=O)c1ncnc(N)c1Cl)c1ncc(C(=O)Nc2cc(C(F)(F)F)c(Cl)cn2)s1 + C=CC(=O)N1CCN(c2nc(OCC3CCCN3C)nc3c(F)c(-c4nc(N)cc(C)c4C(F)(F)F)c(Cl)cc23)C(C)C1", "%", 117],
  ["CCC(CC)c1cc(NC2CCC(N)C2)n2nccc2n1 (stereo unspecified) + C#Cc1c(F)ccc2cc(O)cc(-c3ncc4c(N5CC6CCC(C5)N6)nc(OCC56CCCN5CC(F)C6)nc4c3F)c12", "%", 106],
  ["O=C(c1ccc(F)c(F)c1Nc1ccc(I)cc1F)N1CC(O)([C@@H]2CCCCN2)C1 + C#Cc1c(F)ccc2cc(O)cc(-c3ncc4c(N5CC6CCC(C5)N6)nc(OCC56CCCN5CC(F)C6)nc4c3F)c12", "%", 5.14],
  ["NC1c2ccccc2OC12CCN(c1cnc3c(N4CCCc5ncccc54)n[nH]c3n1)CC2 (stereo unspecified) + C#Cc1c(F)ccc2cc(O)cc(-c3ncc4c(N5CC6CCC(C5)N6)nc(OCC56CCCN5CC(F)C6)nc4c3F)c12", "%", 55.1]
]}

Okay, now this compound:
stdin: Enter viability, T/C (test system 616215-338-R-J1-PDC complex spheroid viability) for Nc1ccn(C2OC(CO)C(O)C2(F)F)c(=O)n1 (stereo unspecified) + C=CC(=O)N1CCN(c2nc(OCC3CCCN3C)nc3c(F)c(-c4nc(N)cc(C)c4C(F)(F)F)c(Cl)cc23)C(C)C1
stdout: 20.7

====

Documented viability, T/C across a set of molecules
- System: 616215-338-R-J1-PDC complex spheroid viability
- test: Anticancer human tumor 616215-338-R-J1-PDC cell line growth inhibition [RAS];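 also: spheroids exposed to agents for seven days before viability readout; 100% = DMSO vehicle control viability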
- conditionDetails: second compound 0.0949 µM; first compound 0.00949 µM; active compounds read low
# number only, unit % dropped from output

Example molecules with recorded viability, T/C:
{"columns": ["molecule", "testedTarget", "outputUnit", "viability, T/C"],
 "data": [
  ["CCc1c2c(nc3ccc(O)cc13)-c1cc3c(c(=O)n1C2)COC(=O)[C@]3(O)CC + CCn1c(-c2cccnc2C(C)OC)c2c3cc(ccc31)N1CCOC(CC(NC(=O)C(C(C)C)N(C)C(=O)C3(F)CCN(C(=O)C#CC(C)(C)N(C)C)CC3)C(=O)N3CCCC(N3)C(=O)OCC(C)(C)C2)C1", "616215-338-R-J1-PDC complex spheroid viability", "%", 41.9],
  ["CC1(C)CCC(Nc2ncc(C(F)(F)F)c(-c3c[nH]c4c(P(C)(C)=O)c(C#N)ccc34)n2)CN1 (centres undefined) + CCn1c(-c2cccnc2C(C)OC)c2c3cc(ccc31)N1CCOC(CC(NC(=O)C(C(C)C)N(C)C(=O)C3(F)CCN(C(=O)C#CC(C)(C)N(C)C)CC3)C(=O)N3CCCC(N3)C(=O)OCC(C)(C)C2)C1", "616215-338-R-J1-PDC complex spheroid viability", "%", 50.3],
  ["CCc1c2c(nc3ccc(O)cc13)-c1cc3c(c(=O)n1C2)COC(=O)[C@]3(O)CC + CCn1c(-c2cc(N3CCN(C)CC3)cnc2C(C)OC)c2c3cc(ccc31)-c1csc(n1)CC(NC(=O)C1CC1C)C(=O)N1CCCC(N1)C(=O)OCC(C)(C)C2", "616215-338-R-J1-PDC complex spheroid viability", "%", 18.1]
]}

Moving on to another molecule below.
stdin: Name the recorded viability, T/C of the item CC1(C)CCC(Nc2ncc(C(F)(F)F)c(-c3c[nH]c4c(P(C)(C)=O)c(C#N)ccc34)n2)CN1 (centres undefined) + CCn1c(-c2cc(N3CCN(C)CC3)cnc2C(C)OC)c2c3cc(ccc31)-c1csc(n1)CC(NC(=O)C1CC1C)C(=O)N1CCCC(N1)C(=O)OCC(C)(C)C2 in your answer.
stdout: 39.2
